target: mTOR/GbL/Raptor (mTORC1) (Homo sapiens, UniProt P42345); experiment: mTOR/GbL/Raptor (mTORC1) ELISA assay; conditions: phosphorylation of 4E-BP1; 0.2 nM mTORC1, 10 μM ATP, 50 nM NHis-tagged 4E-BP1
# IC50 per record follows

# compound, system.name, IC50
rows = [
    ("COc1ccc2c(N3CCOc4ccc(-c5ccc6[nH]c(C)nc6c5)cc4C3)nc(CN(C)C)nc2c1 [Compound 38]", "mTOR/GbL/Raptor (mTORC1) (Homo sapiens, UniProt P42345)", "500 to 2500 nM"),
    ("Cc1nc2cc(-c3ccc4c(c3)CN(c3nc(CN(C)C)nc(C)c3-c3ccccc3)CCO4)ccc2[nH]1 [Compound 21]", "mTOR/GbL/Raptor (mTORC1) (Homo sapiens, UniProt P42345)", "100 to 500 nM"),
    ("Cc1nc(N)nc(N2CCOc3ccc(-c4ccc5[nH]cnc5c4)cc3C2)c1C(C)C [Compound 40]", "mTOR/GbL/Raptor (mTORC1) (Homo sapiens, UniProt P42345)", "≤ 100 nM"),
    ("COC(=O)Nc1nc2cc(-c3ccc4c(c3)CN(c3nc(N)nc(C)c3C(C)C)CCO4)ccc2[nH]1 [Compound 17]", "mTOR/GbL/Raptor (mTORC1) (Homo sapiens, UniProt P42345)", "≤ 100 nM"),
    ("Cc1nc2ncc(-c3ccc4c(c3)CN(c3nc(N)nc5c3CC(C)(C)CC5)CCO4)cc2[nH]1 [Compound 44]", "mTOR/GbL/Raptor (mTORC1) (Homo sapiens, UniProt P42345)", "≤ 100 nM"),
    ("CC(=O)OCc1nc(C)c(C(C)C)c(N2CCOc3ccc(-c4ccc5nc(C)[nH]c5c4)cc3C2)n1 [Compound 4]", "mTOR/GbL/Raptor (mTORC1) (Homo sapiens, UniProt P42345)", "≤ 100 nM"),
    ("Cc1nc2cc(-c3ccc4c(c3)CN(c3nc(CN5CCCC5)nc(C)c3C(C)C)CCO4)ccc2[nH]1 [Compound 20]", "mTOR/GbL/Raptor (mTORC1) (Homo sapiens, UniProt P42345)", "100 to 500 nM"),
]

====

target: mTOR/GbL/Raptor (mTORC1) (Homo sapiens, UniProt P42345); assay: mTOR/GbL/Raptor (mTORC1) ELISA assay; conditions: phosphorylation of 4E-BP1; 0.2 nM mTORC1, 10 μM ATP, 50 nM NHis-tagged 4E-BP1
pIC50: −log10 of the molar value.
Catalogue of molecules with associated pIC50
quantity.measured: pIC50

# smiles.str, value.reported
data = [
    ("COCCOc1cc(-c2ccc3c(c2)CN(c2nc(CN(C)C)nc4c2CC(C)(C)CC4)CCO3)ccc1OC", "6.30 to 7.00"),
    ("Cc1nc2ccc(-c3ccc4c(c3)CN(c3nc(CO)nc(C)c3C(C)C)CCO4)cc2[nH]1", "≥ 7.00"),
    ("COc1ccc(-c2ccc3c(c2)CN(c2nc(CN(C)C)nc4c2CC(C)(C)CC4)CCO3)cc1S(C)(=O)=O", "5.60 to 6.30"),
    ("CC1(C)CCc2nc(N)nc(N3CCOc4ccc(-c5ccc6[nH]cnc6c5)cc4C3)c2C1", "≥ 7.00"),
    ("Cc1nc2cc(-c3ccc4c(c3)CN(c3nc(N)nc(C)c3Cc3ccc(F)cc3)CCO4)cnc2[nH]1", "≥ 7.00"),
    ("Cc1nc(N)nc(N2CCOc3ccc(-c4cnc5[nH]cnc5c4)cc3C2)c1Cc1ccc(F)cc1", "≥ 7.00"),
    ("COc1ccc(-c2ccc3c(c2)CN(c2nc(CN(C)C)nc(C)c2C(C)C)CCO3)cc1NS(C)(=O)=O", "6.30 to 7.00"),
]

====

target: mTOR/GbL/Raptor (mTORC1) (Homo sapiens, UniProt P42345); assay: mTOR/GbL/Raptor (mTORC1) ELISA assay; format: biochemical; settings: phosphorylation of 4E-BP1; 0.2 nM mTORC1, 10 μM ATP, 50 nM NHis-tagged 4E-BP1
pIC50: −log10 of the molar value.

# smiles.str, system.name, pIC50
data = [
    ("CCNc1nc2cc(-c3ccc4c(c3)CN(c3nc(N)nc(C)c3C(C)C)CCO4)ccc2[nH]1", "mTOR/GbL/Raptor (mTORC1) (Homo sapiens, UniProt P42345)", "≥ 7.00"),
    ("Cc1nc(N)nc(N2CCOc3ccc(-c4ccc5[nH]cnc5c4)cc3C2)c1Cc1ccc(F)cc1", "mTOR/GbL/Raptor (mTORC1) (Homo sapiens, UniProt P42345)", "≥ 7.00"),
    ("Cc1nc2cc(-c3ccc4c(c3)CN(c3nc(CN(C)C)nc(C)c3CC(C)C)CCO4)ccc2[nH]1", "mTOR/GbL/Raptor (mTORC1) (Homo sapiens, UniProt P42345)", "6.30 to 7.00"),
    ("CC1(C)CCc2nc(N)nc(N3CCOc4ccc(-c5cnc6[nH]cnc6c5)cc4C3)c2C1", "mTOR/GbL/Raptor (mTORC1) (Homo sapiens, UniProt P42345)", "≥ 7.00"),
]

====

pIC50: −log10 of the molar value.
Parameter 'readout' = pIC50; parameter 'system' = PI3Kα (Homo sapiens, UniProt P42336).
Sequence (P42336 whole entry): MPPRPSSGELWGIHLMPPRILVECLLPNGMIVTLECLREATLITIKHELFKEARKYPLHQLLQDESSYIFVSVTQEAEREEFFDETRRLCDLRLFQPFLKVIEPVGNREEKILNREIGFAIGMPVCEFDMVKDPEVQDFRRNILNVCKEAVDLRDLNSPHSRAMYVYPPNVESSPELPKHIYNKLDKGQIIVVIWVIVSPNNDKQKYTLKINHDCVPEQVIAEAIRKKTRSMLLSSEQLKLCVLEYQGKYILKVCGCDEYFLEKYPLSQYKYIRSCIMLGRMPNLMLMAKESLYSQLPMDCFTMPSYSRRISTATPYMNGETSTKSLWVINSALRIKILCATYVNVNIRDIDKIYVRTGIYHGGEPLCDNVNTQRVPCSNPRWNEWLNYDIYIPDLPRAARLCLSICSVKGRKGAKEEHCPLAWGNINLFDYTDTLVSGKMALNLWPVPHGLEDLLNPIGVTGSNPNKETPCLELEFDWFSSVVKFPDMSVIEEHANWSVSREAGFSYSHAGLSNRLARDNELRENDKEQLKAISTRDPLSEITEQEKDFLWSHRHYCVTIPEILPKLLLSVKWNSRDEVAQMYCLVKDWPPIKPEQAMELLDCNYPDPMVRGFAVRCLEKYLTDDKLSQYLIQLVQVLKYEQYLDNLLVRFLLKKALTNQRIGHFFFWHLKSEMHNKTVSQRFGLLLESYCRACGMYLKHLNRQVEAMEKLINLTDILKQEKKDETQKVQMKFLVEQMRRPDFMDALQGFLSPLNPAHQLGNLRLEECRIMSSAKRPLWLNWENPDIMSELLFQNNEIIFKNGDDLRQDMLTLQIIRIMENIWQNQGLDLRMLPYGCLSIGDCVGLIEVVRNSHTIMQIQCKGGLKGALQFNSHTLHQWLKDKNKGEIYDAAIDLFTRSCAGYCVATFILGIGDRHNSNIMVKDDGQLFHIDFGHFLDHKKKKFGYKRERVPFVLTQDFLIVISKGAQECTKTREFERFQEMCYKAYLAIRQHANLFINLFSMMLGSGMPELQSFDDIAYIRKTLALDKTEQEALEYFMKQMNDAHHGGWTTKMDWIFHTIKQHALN
Sequence (P27986 whole entry partner): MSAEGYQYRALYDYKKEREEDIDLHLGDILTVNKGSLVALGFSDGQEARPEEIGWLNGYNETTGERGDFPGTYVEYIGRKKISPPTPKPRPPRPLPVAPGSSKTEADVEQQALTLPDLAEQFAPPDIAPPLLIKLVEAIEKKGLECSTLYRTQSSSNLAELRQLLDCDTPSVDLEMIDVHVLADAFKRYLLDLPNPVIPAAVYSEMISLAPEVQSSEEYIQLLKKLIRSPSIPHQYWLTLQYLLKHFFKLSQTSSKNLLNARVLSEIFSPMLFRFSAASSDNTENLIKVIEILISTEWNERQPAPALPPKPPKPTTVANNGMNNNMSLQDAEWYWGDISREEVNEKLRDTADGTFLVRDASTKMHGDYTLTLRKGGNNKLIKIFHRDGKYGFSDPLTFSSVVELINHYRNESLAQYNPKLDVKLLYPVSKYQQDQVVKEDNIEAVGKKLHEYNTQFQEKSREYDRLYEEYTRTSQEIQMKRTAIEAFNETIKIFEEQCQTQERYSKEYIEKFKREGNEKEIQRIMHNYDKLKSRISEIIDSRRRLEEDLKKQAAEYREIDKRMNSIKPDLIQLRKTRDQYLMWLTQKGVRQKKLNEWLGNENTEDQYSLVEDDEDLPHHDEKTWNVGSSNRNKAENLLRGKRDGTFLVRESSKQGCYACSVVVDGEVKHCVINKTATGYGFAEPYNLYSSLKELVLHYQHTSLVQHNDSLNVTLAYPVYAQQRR
quantity.measured: pIC50

# compound, value.reported
measured = [
    ("Cc1cc(N2CCOc3ccc(-c4ccc5[nH]cnc5c4)cc3C2)nc(N)n1 [Compound 43]", "5.60 to 6.30"),
    ("Cc1nc2cc(-c3ccc4c(c3)CN(c3nc(NC(C)C)nc(C)c3Cc3ccc(F)cc3)CCO4)ccc2[nH]1 [Compound 19]", "5.60 to 6.30"),
]

====

Recorded IC50, one value per entry.
Molecular target: mTOR/GbL/Raptor (mTORC1) (Homo sapiens)
Experiment: mTOR/GbL/Raptor (mTORC1) ELISA assay
Settings: phosphorylation of 4E-BP1; 0.2 nM mTORC1, 10 μM ATP, 50 nM NHis-tagged 4E-BP1
Protocol: mTOR/GbL/Raptor (mTORC1) ELISA Assay The measurement of mTORC1 enzyme activity was performed in an ELISA assay format following the phosphorylation of 4E-BP1 protein. All experiments were performed in the 384-well format. […] Following the final wash step with TBST, 20 μL of SuperSignal ELISA Femto (Pierce Biotechnology) was added and the luminescence measured using an EnVision plate reader.
quantity.measured: IC50

# smiles.str, system.name, value.reported
measured = [
    ("Cc1nc2cc(-c3ccc4c(c3)CN(c3nc(CN(C)C)nc(C)c3Br)CCO4)ccc2[nH]1", "mTOR/GbL/Raptor (mTORC1) (Homo sapiens)", "500 to 2500 nM"),
    ("CCCc1c(C)nc(CN(C)C)nc1N1CCOc2ccc(-c3ccc4nc(C)[nH]c4c3)cc2C1", "mTOR/GbL/Raptor (mTORC1) (Homo sapiens)", "500 to 2500 nM"),
    ("Cc1nc2cc(-c3ccc4c(c3)CN(c3nc(CNCCF)nc(C)c3C(C)C)CCO4)ccc2[nH]1", "mTOR/GbL/Raptor (mTORC1) (Homo sapiens)", "≤ 100 nM"),
    ("Cc1nc2cc(-c3ccc4c(c3)CN(c3nc(CF)nc5c3CC(C)(C)CC5)CCO4)ccc2[nH]1", "mTOR/GbL/Raptor (mTORC1) (Homo sapiens)", "≤ 100 nM"),
]
